Cited source: patent US20180258175A1

// reported signal vs NO COMP=100 for each item listed
target: T1, human CD115 extracellular domain (Sino Biological 10161-H08H) (human, UniProt P07333 20-517); experiment: competition ELISA, competitor TMR 44B;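 note: binding of antibodies from single-clone hybridoma supernatants to huCD115 measured with the competitor antibody present, a drop in signal meaning both share an epitope bin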;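 note: low signal means same epitope bin as the mouse competitor antibody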
T1 construct: extracellular domain; bought recombinant protein; also called huCD115; hu-CD115
A number alone suffices; assume %.

Here are 2 binders together with their reported answers.
binder="CCK-417A (antibody, V domains shown, AlivaMab chimeric IgG, human kappa LC) VH: QVTLRESGPALVKPTQTLTLTCTFSGFSLSTSGMCVSWIRQPPGKALECLALIDWDDDKYYSTSLKTRLTISKDTSKNQVVLTMTNMDPVDTATYYCARTQLGIADYWGQGTLVTVSS VL: AIRMTQSPSSFSASTGDRVTITCRASQGISSYLAWYQQKPGKAPKLLIYAASTLQSGVPSRFSGSGSGTDFTLTISCLQSEDFATYYCQQYYSYPFTFGPGTKVDIK" readout="signal vs NO COMP=100" recorded_number=19
binder="429 (Table 4, bin 1C block) (antibody, V domains shown, not tied) VH: QVQLEQSGAEVKRPGASVKVSCKASGYTFTGYYMHWVRQAPGQGLEWMGWINPNRGDTNYAQKFQGRVTMTRDTSISTAYMELSRLRSDDTAVYYCARDLEGGGPFDYWGQGTLVTVSS VL: DIVMTQTPLSLPVTPGEPASISCRSSQSLLDSDDGNTYLDWYLQKPGQSPQLLIYTLSYRASGVPDRFSGSGSGTDFTLKISRVEAEDVGVYYCMQRIEFPSTFGQGTRLEIK" readout="signal vs NO COMP=100" recorded_number=45

Let us examine a further case.
Could you tell me which signal vs NO COMP=100 is on file for CCK-541A (antibody, V domains shown, AlivaMab chimeric IgG, human kappa LC) VH: QVQLQESGPGLVKPSETLSLTCTVSGASISTYFWSWLRQPPGKGLEWIGYIFYSGSINYNPSLKSRVTISVDTSKNQFSLELSSVTAADTAVYYCARDRTFYGMDVWGQGTTVTVSS VL: EIVLTQSPGTLSLPPGERATLSCRASQNVSSTYLAWYHQKPGQAPRLLIYGASSRATGIPDRFSGSGSGTDFTLTISRLEPEDFAVYYCQQYGSSPRTFGQGTKVEIK ? 15
